# IC50 per record follows
Target: P2X3 (UniProt P56373)
Assay: P2X3 FLIPR intracellular calcium assay
Conditions: agonist at EC75, species (human or rat) not given
Protocol: The FLIPR® assay utilizes cells which express human or rat P2X3 or P2X2/3 receptors. […] Compounds were added to the respective wells of the assay-ready cell plate with the help of the FLIPR and fluorescence readings were captured for 5 min to observe any possible agonistic property of the compounds. […] The cells were stimulated with respective agonist EC75 concentration and the fluorescence readings were captured for another 5 min by FLIPR. […]

> print(dat)
                                   compound     readout.value
1  COc1ccccc1Nc1cc(C(=O)N[C@@H](C)c2nnc[nH]2)cn2c(-c3ccc(C)s3)cnc12    100 to 1000 nM
2  CCCc1nnnn1-c1cc(C(=O)NCc2ccc(C)nc2)cn2c(-c3ccc(C)s3)cnc12        > 10000 nM
3  Cc1ccc(CNC(=O)c2cc(Nc3ccccc3)c3ncc(-c4ccc(C)s4)n3c2)cn1    100 to 1000 nM
4  Cc1ccc(CNC(=O)c2cc(-n3nncc3C(F)F)c3ncc(-c4ncc(C)s4)n3c2)cn1       1 to 100 nM
5  Cc1noc(C(C)NC(=O)c2cc(-n3nnnc3C(F)F)c3ncc(-c4ccc(C)s4)n3c2)n1 (stereo in doubt)       1 to 100 nM
6  Cc1ccc(CNC(=O)c2cc(N3CCC(C)CC3)c3ncc(-c4ccc(C)s4)n3c2)cn1  1000 to 10000 nM

Now for the compound whose IC50 we want.
Using the record for Cc1cnc(-c2cnc3c(-n4nncc4C(C)(C)C)cc(C(=O)N[C@@H](C)c4nnc[nH]4)cn23)s1 , state its measured IC50.
1 to 100 nM

---

biological target: P2X2/3 (Homo sapiens, UniProt P56373+Q9UBL9); experiment: P2X2/3 FLIPR intracellular calcium assay; conditions: agonist at EC75, species (human or rat) not given
Sequence (Q9UBL9 whole entry): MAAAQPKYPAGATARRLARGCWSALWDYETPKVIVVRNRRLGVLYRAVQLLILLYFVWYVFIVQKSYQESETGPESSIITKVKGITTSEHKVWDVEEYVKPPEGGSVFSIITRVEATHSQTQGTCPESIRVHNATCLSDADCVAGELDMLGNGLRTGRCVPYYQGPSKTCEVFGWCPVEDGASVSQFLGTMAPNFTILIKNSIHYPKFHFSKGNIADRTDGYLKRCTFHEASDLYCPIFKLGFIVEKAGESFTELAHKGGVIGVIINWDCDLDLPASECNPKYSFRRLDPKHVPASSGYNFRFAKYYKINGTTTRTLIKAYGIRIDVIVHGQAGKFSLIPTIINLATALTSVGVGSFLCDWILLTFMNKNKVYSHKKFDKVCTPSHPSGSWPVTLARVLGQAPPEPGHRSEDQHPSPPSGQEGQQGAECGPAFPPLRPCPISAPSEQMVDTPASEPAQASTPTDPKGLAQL
Sequence (P56373 whole entry): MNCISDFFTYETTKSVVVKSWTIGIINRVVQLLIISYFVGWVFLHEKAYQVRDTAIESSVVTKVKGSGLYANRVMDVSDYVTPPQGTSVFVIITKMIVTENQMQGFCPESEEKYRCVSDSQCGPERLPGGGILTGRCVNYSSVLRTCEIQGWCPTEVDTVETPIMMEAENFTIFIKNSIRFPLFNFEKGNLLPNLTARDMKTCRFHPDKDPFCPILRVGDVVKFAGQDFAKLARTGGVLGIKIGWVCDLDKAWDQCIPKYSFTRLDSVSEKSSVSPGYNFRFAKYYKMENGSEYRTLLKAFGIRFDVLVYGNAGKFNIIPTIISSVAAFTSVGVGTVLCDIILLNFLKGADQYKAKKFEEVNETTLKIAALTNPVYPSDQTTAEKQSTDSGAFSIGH
measure: IC50

Example cases with answers are listed next.
> print(dat)
                                   compound  measure    readout.value
1  Cc1ccc(CNC(=O)c2cc(-n3nnnc3C(C)C)c3ncc(-c4ccc(C)s4)n3c2)cn1 [Example 151]     IC50      0.1 to 1 µM
2  Cc1ccc(CNC(=O)c2cc(N3CCN(C(N)=O)CC3)c3ncc(-c4ccc(C)s4)n3c2)cn1 [Example 13]     IC50      0.1 to 1 µM
3  CCCc1nnnn1-c1cc(C(=O)NCc2ccc(C)nc2)cn2c(-c3ccc(C)s3)cnc12 [Example 158]     IC50  0.001 to 0.1 µM

Now for the compound whose IC50 we want.
Lab note: record IC50 of CC[C@H](NC(=O)c1cc(-n2nncc2C(C)C)c2ncc(-c3ccc(C)s3)n2c1)c1nnc[nH]1 [Example 61] tested on P2X2/3 (Homo sapiens, UniProt P56373+Q9UBL9).
0.001 to 0.1 µM

---

# IC50 per record follows
target: P2X2/3 (Homo sapiens, UniProt P56373+Q9UBL9); test: P2X2/3 FLIPR intracellular calcium assay; details: agonist at EC75, species (human or rat) not given

Example cases with answers are listed next.
> print(dat)
                                    compound     readout.value
 1  Cc1ccc(-c2cnc3c(-n4nnnc4CC4CC4)cc(C(=O)N[C@@H](C)c4nnc[nH]4)cn23)s1       1 to 100 nM
 2  Cc1ccc(-c2cnc3c(N4CCC(F)CC4)cc(C(=O)N[C@@H](C)c4nnc[nH]4)cn23)s1    100 to 1000 nM
 3  Cc1ccc(-c2cnc3c(-n4nnnc4C4CCC4)cc(C(=O)NCc4ccn(C)c(=O)c4)cn23)s1       1 to 100 nM
 4  CC[C@H](NC(=O)c1cc(-n2nnnc2C(F)F)c2ncc(-c3ccc(C)s3)n2c1)c1nnc[nH]1       1 to 100 nM
 5  Cc1noc(C(C)NC(=O)c2cc(-n3nnnc3C(F)F)c3ncc(-c4ccc(C)s4)n3c2)n1 (stereo in doubt)       1 to 100 nM
 6  Cc1cnc(CNC(=O)c2cc(-n3nnnc3C(F)F)c3ncc(-c4ncc(C)s4)n3c2)cn1  1000 to 10000 nM
 7  Cc1ccc(-c2cnc3c(-n4nncc4C(F)F)cc(C(=O)N[C@H](c4nnc[nH]4)C(C)C)cn23)s1       1 to 100 nM
 8  Cc1ccc(-c2cnc3c(-c4cnn(C)c4)cc(C(=O)N[C@@H](C)c4nnc[nH]4)cn23)s1    100 to 1000 nM
 9  CC[C@H](NC(=O)c1cc(N2CCC(F)(F)CC2)c2ncc(-c3ccc(C)s3)n2c1)c1nnc[nH]1       1 to 100 nM
10  Cc1ccc(-c2cnc3c(-n4nnnc4C(F)F)cc(C(=O)N[C@@H](C)c4nnc[nH]4)cn23)s1       1 to 100 nM

Using the record for COc1ncc(CNC(=O)c2cc(-n3nnnc3C(F)F)c3ncc(-c4ccc(C)s4)n3c2)cn1 , state its measured IC50.
1 to 100 nM

Using the record for C[C@H](NC(=O)c1cc(-n2nncc2C(C)(F)F)c2ncc(-c3ccc(Cl)s3)n2c1)c1nnc[nH]1 , state its measured IC50.
1 to 100 nM

Using the record for Cc1ccc(-c2cnc3c(N(C)C(=O)C(C)C)cc(C(=O)N[C@@H](C)c4nnc[nH]4)cn23)s1 , state its measured IC50.
100 to 1000 nM

Using the record for Cc1ccc(CNC(=O)c2cc(-n3nncc3C3CC3)c3ncc(-c4ccc(C)s4)n3c2)cn1 , state its measured IC50.
1 to 100 nM

Using the record for Cc1nnc([C@@H](C)NC(=O)c2cc(-n3nnnc3C(F)F)c3ncc(-c4ccc(C)s4)n3c2)o1 , state its measured IC50.
1 to 100 nM
